Every entry's value here was drawn from paper PMC9911399.

Quick reference: binding signal of the listed items.
Target: T1, RBFOX1 RRM (Homo sapiens, UniProt Q9NWB1 109-208)
T1 sequence: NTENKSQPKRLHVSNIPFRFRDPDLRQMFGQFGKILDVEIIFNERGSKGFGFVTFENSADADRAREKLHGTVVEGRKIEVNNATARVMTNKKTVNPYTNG
Test: EMSA; HiTS-Eq, 1 nM pool, 10 min; buffer printed only for the single-RNA assays: 10 mM Tris pH 7.5, 150 mM NaCl, 3.4 mM EDTA, 0.001% NP-40, 30 C
Details: tags: His6 N-terminal (pET28a); label: 5' 32P
Over roughly 16,000 sequences, “ka relative to ugcaugu” has its median near 0.0091; the highest 2% begin near 0.032. This is one part of a sample in which the highest values are shown more often than they occur.

binder | binding signal
UGCACCC (DNA:RNA) RNA: GGGAGACCGGAAUUCAGAUUGUCCUGCACCCUUAAAUCCCGUCGUAGCCACCA DNA 1: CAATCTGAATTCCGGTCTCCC DNA 2: TGGTGGCTACGACGGGATT | 0.0142 KA relative to UGCAUGU
GUCGAGG (DNA:RNA) RNA: GGGAGACCGGAAUUCAGAUUGUCCGUCGAGGUUAAAUCCCGUCGUAGCCACCA DNA 1: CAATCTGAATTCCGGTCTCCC DNA 2: TGGTGGCTACGACGGGATT | 0.0114 KA relative to UGCAUGU
CUUUGUC (DNA:RNA) RNA: GGGAGACCGGAAUUCAGAUUGUCCCUUUGUCUUAAAUCCCGUCGUAGCCACCA DNA 1: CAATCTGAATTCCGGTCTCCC DNA 2: TGGTGGCTACGACGGGATT | 0.0202 KA relative to UGCAUGU

Here is another binder to look at.
Returns the measured binding signal for the input binder. Input: CUGCACC (DNA:RNA) RNA: GGGAGACCGGAAUUCAGAUUGUCCCUGCACCUUAAAUCCCGUCGUAGCCACCA DNA 1: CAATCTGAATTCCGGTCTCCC DNA 2: TGGTGGCTACGACGGGATT
0.0128 KA relative to UGCAUGU
